In this section, each of the molecules is paired with its reported Ki.
subjectOfTest: Adenosine receptor A2b (Homo sapiens, UniProt P29275)
Sequence (P29275 whole entry): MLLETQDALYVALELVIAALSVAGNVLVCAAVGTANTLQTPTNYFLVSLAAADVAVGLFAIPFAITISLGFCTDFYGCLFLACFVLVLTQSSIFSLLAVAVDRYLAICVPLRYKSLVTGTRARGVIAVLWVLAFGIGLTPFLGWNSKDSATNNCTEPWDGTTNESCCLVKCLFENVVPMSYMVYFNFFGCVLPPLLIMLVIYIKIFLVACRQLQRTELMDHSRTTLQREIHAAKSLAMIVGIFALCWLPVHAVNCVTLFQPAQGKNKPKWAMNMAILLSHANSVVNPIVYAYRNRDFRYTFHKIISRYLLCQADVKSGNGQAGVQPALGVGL
experiment: Antagonist activity at human adenosine A2B receptor expressed in CHO cells assessed as NECA-induced adenylate cyclase activity
parameter: Ki

molecule: CCN(CC)c1nc2nn(C)cc2c2nc(-c3ccco3)nn12
result: > 10 µM
--
molecule: Cn1cc2c(nc(NCc3ccc(-c4ccccc4)cc3)n3nc(-c4ccco4)nc23)n1
result: > 10 µM
--
molecule: Cn1cc2c(nc(NC(CO)CO)n3nc(-c4ccco4)nc23)n1
result: > 10 µM
--
molecule: CCCCCCC(C)Nc1nc2nn(C)cc2c2nc(-c3ccco3)nn12 (stereo not given)
result: > 10 µM
--
molecule: COc1ccc(CNc2nc3nn(C)cc3c3nc(-c4ccco4)nn23)cc1OC
result: > 3 µM
--
molecule: Cn1cc2c(nc(N(Cc3ccccc3)Cc3ccccc3)n3nc(-c4ccco4)nc23)n1
result: > 10 µM
--
molecule: CC(O)CNc1nc2nn(C)cc2c2nc(-c3ccco3)nn12 (stereo not given)
result: > 3 µM
--
molecule: Cn1cc2c(nc(NC(c3ccccc3)c3ccccc3)n3nc(-c4ccco4)nc23)n1
result: > 10 µM
--
molecule: Cn1cc2c(nc(NC3C4CC5CC(C4)CC3C5)n3nc(-c4ccco4)nc23)n1 (stereo not given)
result: > 10 µM
--
molecule: Cn1cc2c(nc(NCCCCO)n3nc(-c4ccco4)nc23)n1
result: > 10 µM
